TARGET: human GLUT2 (Homo sapiens)
Construct: expressed in transfected cells
Sequence (P11168 whole entry): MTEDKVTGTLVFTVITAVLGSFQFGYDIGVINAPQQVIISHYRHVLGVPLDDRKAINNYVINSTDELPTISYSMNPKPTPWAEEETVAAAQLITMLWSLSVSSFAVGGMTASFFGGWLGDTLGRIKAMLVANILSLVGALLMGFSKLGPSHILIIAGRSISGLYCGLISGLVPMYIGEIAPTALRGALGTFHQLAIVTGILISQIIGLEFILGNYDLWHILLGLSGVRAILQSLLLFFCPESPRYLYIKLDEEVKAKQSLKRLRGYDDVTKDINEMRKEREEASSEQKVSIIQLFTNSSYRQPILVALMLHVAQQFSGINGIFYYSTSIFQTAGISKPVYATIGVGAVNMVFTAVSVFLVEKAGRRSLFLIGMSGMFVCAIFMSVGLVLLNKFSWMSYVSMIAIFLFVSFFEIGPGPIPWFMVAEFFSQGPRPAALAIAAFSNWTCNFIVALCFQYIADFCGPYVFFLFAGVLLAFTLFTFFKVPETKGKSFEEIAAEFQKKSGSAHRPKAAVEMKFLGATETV
MEASUREMENT DESCRIPTION: [3H]-deoxy-D-glucose uptake assay, GLUT2
Type: cell-based
RECORDED CONDITIONS: [3H]-deoxy-D-glucose uptake in HEK293 cells stably expressing human GLUT2
Protocol: HEK293 cells were engineered to stably express either human GLUT1, GLUT2, GLUt3 or GLUT4 by transfection with the pReceiver-Lv105 plasmid, containing either hGLUT1, hGLUT2, hGLUT3, or hGLUT4 gene constructs with lipofectamine 2000, hGLUT1- hGLUT2- hGLUT3- or hGLUT4-overexpressing polyclonal populations were isolated under purinomycin selective pressure (1 μg/ml) and maintained in Dulbecco's modified Eagle's medium supplemented with 1 μg/ml purinomycin+10% foetal bovine serum (FBS). […]

ENTRY SMILES: CN(c1ccc2nc(-c3ccc(Cl)cc3)c(CN3CCn4ncnc4C3)n2c1)S(C)(=O)=O
GLUT2 pIC50: ++ (pIC50 5.00-5.99)

ENTRY SMILES: CCS(=O)(=O)c1ccc2nc(-c3ccc(Cl)cc3)c(CN3CCN(C(C)=O)CC3)n2c1
GLUT2 pIC50: ++ (pIC50 5.00-5.99)

ENTRY SMILES: CNS(=O)(=O)c1ccc2nc(-c3ccc(Cl)cc3)c(CN3CCN(C(C)=O)CC3)n2c1
GLUT2 pIC50: ++ (pIC50 5.00-5.99)

ENTRY SMILES: O=C(c1ccnnc1)N1CCN(Cc2c(-c3ccc(Cl)cc3Cl)nc3cnc(C4CC4)cn23)CC1
GLUT2 pIC50: +++ (pIC50 ≧ 6.00)

ENTRY SMILES: O=C(c1ccncc1)N1CCN(Cc2c(-c3ccc(Cl)cc3)nc3cnc(C4CC4)cn23)CC1
GLUT2 pIC50: +++ (pIC50 ≧ 6.00)

ENTRY SMILES: CC(=O)N1CCN(Cc2c(-c3ccc(Cl)cc3)nc3ccc(N(C(F)F)S(C)(=O)=O)cn23)CC1
GLUT2 pIC50: +++ (pIC50 ≧ 6.00)

ENTRY SMILES: Cn1cc(C(=O)N2CCN(Cc3c(-c4ccc(Cl)cc4Cl)nc4ccc(NS(C)(=O)=O)cn34)CC2)cn1
GLUT2 pIC50: ++ (pIC50 5.00-5.99)

Where these numbers come from: patent US20160120863A1
